Measured values drawn from patent US12617776B2 for this set.

assayMethodText: physchem
settings: 20 °C, organic solvent or mixture, thermodynamic from solid, Solubility at 20° C., ethanol, aliquot addition
Where a name gives a salt, the structure may show the parent alone.
propertyLabel: solubility

INSERT INTO assay_data (molecule, assayvalue) VALUES
  ('CN(C)CCn1c(CC(C)(C)C)nc2cc(S(=O)(=O)C3CN(CCO)C3)ccc21 [AAT-730 HCl salt]', '< 21 mg/mL');

###

assayMethodText: physchem
settings: 20 °C, organic solvent or mixture, thermodynamic from solid, Solubility at 20° C., acetone, aliquot addition
Where a name gives a salt, the structure may show the parent alone.
propertyLabel: solubility

INSERT INTO assay_data (compound, assayvalue) VALUES
  ('CN(C)CCn1c(CC(C)(C)C)nc2cc(S(=O)(=O)C3CN(CCO)C3)ccc21 [AAT-730 HCl salt]', '< 20 mg/mL');
